Entry source: patent US9598383B2

assay: Stability of model compounds in simulated physiological conditions, analytical HPLC; type: physicochemical; details: HEPES, pH 7.2; RT, 24 h
Readout Label: stability (%)

Example cases with answers are listed next.
> print(dat)
                       smi  readout.label  measured.result
1  O=C(Cc1ccccc1)N1CCSC1=S      stability             32.5
2  O=C(Cc1ccccc1)N1CCOC1=S      stability             54.6

(I) O=C(c1ccccc1)N1CCSC1=S
(II) O=C1SCCN1C(=O)c1ccccc1
# input // max by stability over [ I , II ] Provide the label of your selected option as the answer.
# output II

###

test: H2O2-triggered deprotection of model compounds (conversion to acid), analytical HPLC; type: physicochemical; details: incubation at RT, 1 h
Readout Label: percent conversion to acid (%)

Example cases with answers are listed next.
> print(dat)
                       smi  measured.result
1   O=C(c1ccccc1)N1CCOC1=S             44.7
2   O=C1OCCN1C(=O)c1ccccc1             14.6
3  O=C(Cc1ccccc1)N1CCOC1=S             81.6

(P) O=C(Cc1ccccc1)N1CCSC1=O
(Q) O=C(Cc1ccccc1)N1CCSC1=S
(R) O=C1SCCN1C(=O)c1ccccc1
(S) O=C(c1ccccc1)N1CCSC1=S
# input Please put the entries in order of rising percent conversion to acid. Returns: the labels listed in the requested order.
# output R, P, S, Q

###

stability values for the compounds below.
experiment: Stability of model compounds in simulated physiological conditions, analytical HPLC; type: physicochemical; conditions: HEPES, pH 7.2; RT, 24 h

Example cases with answers are listed next.
> print(dat)
                                   compound  readout.label  measured.result
1  O=C(c1ccccc1)N1CCOC1=S [Compound 3, Phenyl(2-thioxooxazolidin-3-yl)methanone]      stability            95.5%
2  O=C(Cc1ccccc1)N1CCSC1=O [Compound 6, 3-(2-phenylacetyl)thiazolidin-2-one]      stability             >99%
3  O=C(Cc1ccccc1)N1CCOC1=O [Compound 5, 3-(2-phenylacetyl)oxazolidin-2-one]      stability             >99%

From here, focus on the item given below.
# input For O=C1OCCN1C(=O)c1ccccc1 [Compound 1, 3-benzoyloxazolidin-2-one] , write its stability.
# output >99%

###

experiment: Stability of model compounds in simulated physiological conditions, analytical HPLC; type: physicochemical; settings: HEPES, pH 8.0; RT, 24 h
Readout Label: stability (%)

> print(dat)
                      smi  readout.label  unit.symbol  measured.result
1  O=C1SCCN1C(=O)c1ccccc1      stability            %             82.5

(P) O=C(Cc1ccccc1)N1CCOC1=S
(Q) O=C(c1ccccc1)N1CCSC1=S
# input // max by stability over [ P , Q ] Provide the label of your selected option as the answer.
# output Q

###

test: Stability of model compounds in simulated physiological conditions, analytical HPLC; type: physicochemical; conditions: HEPES, pH 7.2 + GSH (9 equiv); RT, 24 h
Readout Label: stability (%)

> print(dat)
                       smi  unit.symbol  measured.result
1   O=C(c1ccccc1)N1CCSC1=S            %             77.6
2  O=C(Cc1ccccc1)N1CCOC1=S            %             45.7

(I) O=C(c1ccccc1)N1CCOC1=S
(II) O=C(Cc1ccccc1)N1CCSC1=S
# input Dear colleague, could you let me know whether I or II has the lower recorded stability? Thanks. Provide the label of your selected option as the answer.
# output II

###

assay: Stability of model compounds in simulated physiological conditions, analytical HPLC; assay type: physicochemical; settings: glutathione (9 equiv)
Readout Label: stability in the presence of glutathione

> print(dat)
                                   compound                             readout.label   measured.result
1      O=C(Cc1ccccc1)N1CCSC1=S [Compound 8]  stability in the presence of glutathione  poorer stability
2       O=C(c1ccccc1)N1CCSC1=S [Compound 4]  stability in the presence of glutathione  poorer stability
3      O=C(Cc1ccccc1)N1CCOC1=S [Compound 7]  stability in the presence of glutathione  poorer stability
4  O=C(c1ccccc1)N1CCOC1=S [Compound 3, Phenyl(2-thioxooxazolidin-3-yl)methanone]  stability in the presence of glutathione  poorer stability

###

percent conversion to acid values for the molecules below.
assay: H2O2-triggered deprotection of model compounds (conversion to acid), analytical HPLC; type: physicochemical; conditions: incubation at RT, 4 h

> print(dat)
                                   molecule  measured.result
1  O=C(Cc1ccccc1)N1CCSC1=O [Compound 6, 3-(2-phenylacetyl)thiazolidin-2-one]            67.8%
2      O=C(Cc1ccccc1)N1CCSC1=S [Compound 8]             >99%
3       O=C(c1ccccc1)N1CCSC1=S [Compound 4]             >99%

# input For O=C(c1ccccc1)N1CCOC1=S [Compound 3, Phenyl(2-thioxooxazolidin-3-yl)methanone] , write its percent conversion to acid.
# output >99%

# input For O=C(Cc1ccccc1)N1CCOC1=O [Compound 5, 3-(2-phenylacetyl)oxazolidin-2-one] , write its percent conversion to acid.
# output <1%

# input For O=C(Cc1ccccc1)N1CCOC1=S [Compound 7] , write its percent conversion to acid.
# output >99%

# input For O=C1SCCN1C(=O)c1ccccc1 [Compound 2, 3-benzoylthiazolidin-2-one] , write its percent conversion to acid.
# output 37.8%

# input For O=C1OCCN1C(=O)c1ccccc1 [Compound 1, 3-benzoyloxazolidin-2-one] , write its percent conversion to acid.
# output 25.6%
